molecular target: Protein farnesyltransferase (Homo sapiens, UniProt P49354+P49356); experiment: Inhibition of [3H]FPP incorporation into Ha-ras protein by Farnesyltransferase
endpoint: pIC50
Numbers only, as −log10 of the molar value.

[[record]]
structuresmilesstring = "O=C(c1ccccc1Br)c1cn(Cc2c[nH]cn2)cc1-c1cccc2ccccc12"
number = 7.06

[[record]]
structuresmilesstring = "Cc1ccc(C(=O)c2cn(Cc3c[nH]cn3)cc2-c2ccc3ccccc3c2)cc1"
number = 5.64

[[record]]
structuresmilesstring = "O=C(c1ccccc1)c1cn(Cc2c[nH]cn2)cc1-c1cccc2ccccc12"
number = 6.94

[[record]]
structuresmilesstring = "CSCC[C@H](NC(=O)c1ccc(CNCc2c[nH]cn2)cc1-c1ccccc1C)C(=O)O"
number = 8.85

[[record]]
structuresmilesstring = "Cc1ccc(C(=O)c2cn(Cc3c[nH]cn3)cc2-c2c3ccccc3cc3ccccc23)cc1"
number = 6.33


Quick batch: pIC50 for everything below.
1. O=C(c1ccc(Oc2ccccc2)cc1)c1cn(Cc2c[nH]cn2)cc1-c1cccc2ccccc12
2. Cn1cncc1Cn1cc(C(=O)c2ccc(Oc3ccccc3)cc2)c(-c2cccc3ccccc23)c1

Reply:
1. 7.80
2. 8.34

Give pIC50 for each listed item.
1. O=C(c1ccc(Br)cc1)c1cn(Cc2c[nH]cn2)cc1-c1cccc2ccccc12
2. Cc1ccc(C(=O)c2cn(Cc3c[nH]cn3)cc2-c2cccc3ccccc23)cc1

Reply:
7.49
7.19
